Target Under Test: human GluN1/GluN2B (Homo sapiens, UniProt Q05586+Q13224, Q13224:P553R)
Construct: full open reading frames in pCI-neo, cRNA in Xenopus laevis oocytes; di-heteromeric tetramer
Sequence (Q13224 27-1484 P553R, other chains not shown): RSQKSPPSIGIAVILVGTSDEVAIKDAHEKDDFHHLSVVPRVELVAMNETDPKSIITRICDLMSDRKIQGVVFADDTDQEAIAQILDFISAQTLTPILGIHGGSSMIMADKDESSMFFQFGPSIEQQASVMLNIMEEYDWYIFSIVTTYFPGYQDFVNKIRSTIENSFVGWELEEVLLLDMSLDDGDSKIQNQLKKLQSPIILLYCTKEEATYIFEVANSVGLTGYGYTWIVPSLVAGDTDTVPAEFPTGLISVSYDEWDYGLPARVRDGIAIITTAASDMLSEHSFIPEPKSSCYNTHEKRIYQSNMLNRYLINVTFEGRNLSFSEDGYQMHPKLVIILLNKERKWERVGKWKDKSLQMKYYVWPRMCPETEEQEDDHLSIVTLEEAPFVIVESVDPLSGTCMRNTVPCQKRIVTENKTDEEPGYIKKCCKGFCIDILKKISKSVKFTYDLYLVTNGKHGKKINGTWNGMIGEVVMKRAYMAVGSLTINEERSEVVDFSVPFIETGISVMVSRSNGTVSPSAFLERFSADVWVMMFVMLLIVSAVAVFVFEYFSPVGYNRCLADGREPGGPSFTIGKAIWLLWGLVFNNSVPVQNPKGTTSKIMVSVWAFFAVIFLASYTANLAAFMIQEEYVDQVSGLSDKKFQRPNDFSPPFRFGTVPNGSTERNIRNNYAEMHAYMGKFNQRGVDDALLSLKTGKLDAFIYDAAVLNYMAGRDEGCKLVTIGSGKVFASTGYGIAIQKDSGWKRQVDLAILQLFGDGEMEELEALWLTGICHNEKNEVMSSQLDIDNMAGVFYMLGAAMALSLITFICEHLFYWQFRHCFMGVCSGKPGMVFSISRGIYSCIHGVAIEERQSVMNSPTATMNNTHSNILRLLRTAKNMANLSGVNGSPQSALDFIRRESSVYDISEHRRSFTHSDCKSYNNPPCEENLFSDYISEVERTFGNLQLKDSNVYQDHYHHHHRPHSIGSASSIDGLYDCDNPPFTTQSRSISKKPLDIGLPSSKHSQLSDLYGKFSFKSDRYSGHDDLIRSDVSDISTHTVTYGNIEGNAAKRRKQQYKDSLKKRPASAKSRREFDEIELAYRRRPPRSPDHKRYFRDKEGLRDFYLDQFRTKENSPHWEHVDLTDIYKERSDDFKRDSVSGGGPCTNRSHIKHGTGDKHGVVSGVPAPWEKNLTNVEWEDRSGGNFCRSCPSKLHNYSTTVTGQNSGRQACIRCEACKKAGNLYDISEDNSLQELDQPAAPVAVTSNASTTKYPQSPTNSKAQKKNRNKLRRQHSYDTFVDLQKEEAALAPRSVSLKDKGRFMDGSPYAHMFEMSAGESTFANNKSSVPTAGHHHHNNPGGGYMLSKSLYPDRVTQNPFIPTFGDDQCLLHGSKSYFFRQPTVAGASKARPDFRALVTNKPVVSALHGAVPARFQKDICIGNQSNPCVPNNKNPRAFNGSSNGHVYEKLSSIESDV
Method Notes: two-electrode voltage clamp, Xenopus oocytes
Assay Metric: EC50 (nM)

NCC(=O)O [Glycine] | 50

---

Target Under Test: human GluN1/GluN2B (Homo sapiens, UniProt Q05586+Q13224, Q05586:P557R)
Construct: full open reading frames in pCI-neo, cRNA in Xenopus laevis oocytes; di-heteromeric tetramer
Sequence (Q13224 27-1484, other chains not shown): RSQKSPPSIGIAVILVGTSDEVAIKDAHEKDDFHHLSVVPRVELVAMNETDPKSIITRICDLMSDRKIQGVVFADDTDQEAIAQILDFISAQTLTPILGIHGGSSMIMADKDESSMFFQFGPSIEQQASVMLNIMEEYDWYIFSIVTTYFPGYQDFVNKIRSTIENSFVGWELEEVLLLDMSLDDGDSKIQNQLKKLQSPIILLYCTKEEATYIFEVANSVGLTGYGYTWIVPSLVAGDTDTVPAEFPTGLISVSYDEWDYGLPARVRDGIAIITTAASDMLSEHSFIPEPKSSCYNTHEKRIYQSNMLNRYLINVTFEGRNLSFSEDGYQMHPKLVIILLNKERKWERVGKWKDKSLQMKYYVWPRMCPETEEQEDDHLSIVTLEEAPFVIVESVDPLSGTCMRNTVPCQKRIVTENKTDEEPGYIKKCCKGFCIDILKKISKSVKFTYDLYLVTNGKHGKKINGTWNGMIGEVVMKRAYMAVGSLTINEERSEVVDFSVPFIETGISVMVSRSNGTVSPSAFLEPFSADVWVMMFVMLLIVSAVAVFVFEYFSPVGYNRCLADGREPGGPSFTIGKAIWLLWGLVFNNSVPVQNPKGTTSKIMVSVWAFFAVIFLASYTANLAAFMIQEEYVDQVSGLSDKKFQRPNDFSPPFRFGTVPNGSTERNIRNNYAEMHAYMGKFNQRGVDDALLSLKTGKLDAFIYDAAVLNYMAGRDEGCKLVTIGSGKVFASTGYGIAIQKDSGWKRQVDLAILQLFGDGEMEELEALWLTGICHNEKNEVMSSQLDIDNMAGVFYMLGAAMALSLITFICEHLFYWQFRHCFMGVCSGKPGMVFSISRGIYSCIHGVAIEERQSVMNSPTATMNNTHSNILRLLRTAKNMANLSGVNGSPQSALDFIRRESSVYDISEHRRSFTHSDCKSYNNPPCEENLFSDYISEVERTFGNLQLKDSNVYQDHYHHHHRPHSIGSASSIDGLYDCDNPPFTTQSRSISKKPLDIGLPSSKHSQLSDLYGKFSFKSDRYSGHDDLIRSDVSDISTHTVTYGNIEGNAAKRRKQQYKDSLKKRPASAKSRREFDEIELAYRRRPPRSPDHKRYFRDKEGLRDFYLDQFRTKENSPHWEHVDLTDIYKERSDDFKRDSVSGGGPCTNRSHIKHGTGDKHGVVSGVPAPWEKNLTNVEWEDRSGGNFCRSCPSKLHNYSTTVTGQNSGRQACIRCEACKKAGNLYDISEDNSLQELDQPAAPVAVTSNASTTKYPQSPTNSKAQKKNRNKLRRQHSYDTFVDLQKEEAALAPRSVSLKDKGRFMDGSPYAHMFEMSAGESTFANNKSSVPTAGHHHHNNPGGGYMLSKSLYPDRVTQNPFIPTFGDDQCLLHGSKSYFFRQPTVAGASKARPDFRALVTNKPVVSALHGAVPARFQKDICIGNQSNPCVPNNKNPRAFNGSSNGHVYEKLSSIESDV
Method Notes: two-electrode voltage clamp, Xenopus oocytes
Assay Metric: EC50 (µM)

NCC(=O)O [Glycine] | 0.07

---

Target Under Test: human GluN1/GluN2A (Homo sapiens, UniProt Q05586+Q12879, Q12879:P552R)
Construct: gene GRIN1; full open reading frames in pCI-neo, cRNA in Xenopus laevis oocytes; di-heteromeric tetramer
Method Notes: two-electrode voltage clamp, Xenopus oocytes
Format: cell-based
Excerpt: two-electrode voltage clamp, Xenopus oocytes on human GluN1/GluN2A
pIC50: −log10 of the molar value.
Assay Metric: pIC50

CNC1(c2ccccc2Cl)CCCCC1=O (stereo not shown) | 5.89

---

Target Under Test: human GluN1/GluN2A (Homo sapiens, UniProt Q05586+Q12879, Q05586:D552E)
Construct: full open reading frames in pCI-neo, cRNA in Xenopus laevis oocytes; di-heteromeric tetramer
Sequence (Q12879 23-1464, other chains not shown): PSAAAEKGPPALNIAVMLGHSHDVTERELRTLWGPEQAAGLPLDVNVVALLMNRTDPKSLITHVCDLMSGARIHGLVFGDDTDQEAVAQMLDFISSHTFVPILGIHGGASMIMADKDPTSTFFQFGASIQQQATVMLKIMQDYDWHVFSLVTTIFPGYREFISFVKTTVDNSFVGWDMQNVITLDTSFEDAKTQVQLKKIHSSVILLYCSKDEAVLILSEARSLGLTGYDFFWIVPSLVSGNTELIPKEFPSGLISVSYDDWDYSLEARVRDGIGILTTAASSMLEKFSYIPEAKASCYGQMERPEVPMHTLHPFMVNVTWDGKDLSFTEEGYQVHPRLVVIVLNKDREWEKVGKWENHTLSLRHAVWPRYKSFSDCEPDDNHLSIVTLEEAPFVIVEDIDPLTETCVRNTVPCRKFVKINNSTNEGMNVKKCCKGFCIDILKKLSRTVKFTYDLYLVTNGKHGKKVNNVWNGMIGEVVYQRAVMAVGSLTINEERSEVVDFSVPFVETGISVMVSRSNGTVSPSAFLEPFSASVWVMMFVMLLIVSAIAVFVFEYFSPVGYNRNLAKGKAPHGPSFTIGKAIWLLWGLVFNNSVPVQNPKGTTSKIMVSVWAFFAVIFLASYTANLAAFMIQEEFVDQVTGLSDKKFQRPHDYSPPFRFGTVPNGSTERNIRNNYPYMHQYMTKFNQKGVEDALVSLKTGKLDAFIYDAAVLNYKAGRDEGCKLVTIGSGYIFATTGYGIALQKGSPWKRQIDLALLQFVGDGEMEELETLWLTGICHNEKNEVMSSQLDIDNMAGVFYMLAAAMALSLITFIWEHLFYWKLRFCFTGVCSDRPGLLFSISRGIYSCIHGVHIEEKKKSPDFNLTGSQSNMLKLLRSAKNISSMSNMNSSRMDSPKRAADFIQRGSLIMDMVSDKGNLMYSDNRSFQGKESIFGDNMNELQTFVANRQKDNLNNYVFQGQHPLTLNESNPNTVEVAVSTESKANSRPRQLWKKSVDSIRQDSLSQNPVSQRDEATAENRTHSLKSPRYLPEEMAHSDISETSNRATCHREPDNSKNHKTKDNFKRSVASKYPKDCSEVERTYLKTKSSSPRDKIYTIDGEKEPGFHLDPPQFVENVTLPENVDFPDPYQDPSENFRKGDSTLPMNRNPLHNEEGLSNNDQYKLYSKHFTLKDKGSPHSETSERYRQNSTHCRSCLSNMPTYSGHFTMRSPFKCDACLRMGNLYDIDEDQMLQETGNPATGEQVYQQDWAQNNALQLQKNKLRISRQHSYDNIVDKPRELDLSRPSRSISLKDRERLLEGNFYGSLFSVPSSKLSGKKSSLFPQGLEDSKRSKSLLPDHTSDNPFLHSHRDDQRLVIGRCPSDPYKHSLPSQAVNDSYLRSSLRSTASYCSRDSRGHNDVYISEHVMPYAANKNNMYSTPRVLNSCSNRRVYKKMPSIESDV
Method Notes: two-electrode voltage clamp, Xenopus oocytes
Assay Metric: EC50

NCC(=O)O | 3.7 µM

---

Target Under Test: human GluN1/GluN2A (Homo sapiens, UniProt Q05586+Q12879, Q12879:P552R)
Construct: full open reading frames in pCI-neo, cRNA in Xenopus laevis oocytes; di-heteromeric tetramer
Method Notes: two-electrode voltage clamp, Xenopus oocytes
Protocol Conditions: read-out: Di-heteromeric NMDA Receptors / GluN2A-P552R
pEC50: −log10 of the molar value.
Assay Metric: pEC50

NCC(=O)O | 7.22
